Observable: flash point (°C)

A: CCC(C)(C)C
B: CCCCCCCC(C)=O
Task for the reader: decide whether A or B has the larger flash point. Please reply using the label of the selected record. B

1: CCCCCCCCCCC(C)C
2: CCC(C)(C)C(C)(C)CC
3: CCOC(=O)C=Cc1ccccc1 [ethylcinnamate]
4: C=CCOCC=C
Kindly order the items shown according to flash point, from the highest value down. Labels, ranked as asked. 3, 1, 2, 4

====

Observable: flash point (°C)

// worked examples, flash point included
Molecule: C1CC[C@H]2CCCC[C@H]2C1 [cis-decalin]
Unit Name: °C
flash point: 57
--
Molecule: CC1=CCCCC1
Unit Name: °C
flash point: -1
--
Molecule: CCCCC(=O)O
Unit Name: °C
flash point: 85

A: CCCCCCN
B: CC(C)CC(=O)CC(C)C
C: C#CCCC(C)C
// ascending sort on recorded flash point Would you mind listing the labels in the order requested? C, A, B
(C: -7 °C, A: 27 °C, B: 49 °C)

====

Observable: flash point (°C)

Illustrative cases are given below, each with its answer.
Compound: NCCN1CCNCC1
Unit Name: °C
flash point: 93.00
//
Compound: C=CCOC(Cn1ccnc1)c1ccc(Cl)cc1Cl (centres undefined) [1-[2-(2,4-dichlorophenyl)-2-prop-2-enoxyethyl]imidazole]
Unit Name: °C
flash point: 192.00
//
Compound: COS(=O)(=O)c1ccc(C)cc1 [methyl 4-methylbenzenesulfonate]
Unit Name: °C
flash point: 152.00
//
Compound: CC(C)C#N
Unit Name: °C
flash point: 8.00
//
Compound: Nc1ccc(Cl)cc1Cl
Unit Name: °C
flash point: 115.00

a: CCc1ccccc1CC
b: Cc1cccnc1
Pick one: a or b . Which has the bigger flash point number? Reply briefly: the label of your chosen item. a
(a: 57.00 °C, b: 36.00 °C)

====

Observable: flash point (°C)

Past entries and their recorded results:
Compound: CCCCCc1ccccc1
flash point / °C: 66

Compound: CCC(=O)OC [methylpropanoate]
flash point / °C: -2

Compound: CC(C)OCCO
flash point / °C: 43

1: CC/C=C/C(=O)O [trans-2-pentenoicacid]
2: CCCC(=O)O
Pick one, 1 or 2 : lowest reported flash point. In your reply, give the label of the chosen option. 2
(2: 69 °C, 1: 102 °C)

====

Where a name gives a salt, the structure may show the parent alone.
# reported flash point; entries follow
The reply should be a number in °C, with the unit left off.

Molecule: CCCCOC(=O)C(O)C(O)C(=O)OCCCC (stereo not drawn) [Dibutyl tartrate]
Observable: flash point
Numeric Readout: 91.00

Given the molecule Cc1ccccc1Br [o-Bromotoluene] , what is its reported flash point? 79.00

Look at this molecule and give its reported flash point. CCCC(C)OC(C)=O (stereo not drawn) [sec-Amyl acetate] 32.00

Find the recorded flash point belonging to Oc1ccccc1 [Phenol] and report it. 79.00

Consider the molecule shown here: CCCOC(C)=O [n-Propyl acetate] What is its recorded flash point? 14.00

Record request: flash point value, item COc1ccccc1C=O [o-Anisaldehyde] 118.00

Requested read-out: flash point. Entry: O=Cc1ccco1 [Furfural] 60.00

Which flash point is reported for this molecule? c1ccc2c(c1)CCCC2 [Tetrahydronaphthalene] 71.00

Data request, read-out flash point, for CC(Cl)=CCCl [1,3-Dichloro-2-butene] 27.00

What does the record list as flash point for COC(=O)OC [Dimethyl carbonate] ? 19.00

# input molecule: C=CCC [1-Butene] ; wanted: its flash point -80.00

So what's the measured flash point for this one? c1ccc(-c2ccccc2)cc1 [Biphenyl] 113.00

Consider the molecule shown here: COC(C)(C)OC [Dimethoxypropane] What is its recorded flash point? -7.00

// query flash point value for entry NCC(O)c1ccccc1 (stereo not drawn) [Phenylethanolamine] 152.00

Which flash point reading was recorded for the molecule COC(=O)C(C)C [Methyl isobutyrate] ? 13.00

Query (molecule): C/C=C/C=O [Crotonaldehyde] ; field requested: flash point 13.00

Consider the molecule shown here: CCCCOC(=O)C(=O)OCCCC [Dibutyl oxalate] What is its recorded flash point? 104.00

====

Observable: flash point (°C)

Record excerpt, results attached:
Molecule: CC(C)(C)C(C)(C)Cl
Observable: flash point
Unit Name: °C
Numeric Readout: 24.4
//
Molecule: CCCCCCCCCCCl
Observable: flash point
Unit Name: °C
Numeric Readout: 83.1
//
Molecule: CCCCCCCCCCCCCCCl
Observable: flash point
Unit Name: °C
Numeric Readout: 130.1
//
Molecule: CCCCCC(Cl)CC (configuration not stated)
Observable: flash point
Unit Name: °C
Numeric Readout: 52.6
//
Molecule: CCCCCC(C)(Cl)CC (configuration not stated)
Observable: flash point
Unit Name: °C
Numeric Readout: 60.0

A: CCCCCCCC(Cl)CCCC (configuration not stated)
B: CCC(C)(Cl)CCCC(C)C (configuration not stated)
C: CC(C)CCCl
D: CCCC(Cl)CCC
Rank the 4 molecules: largest flash point first, smallest last. When ranking, write the labels in the order the request describes. A, B, D, C

====

Observable: flash point (°C)

Compound: CC(C)(C)c1cc(C(C)(C)C)c(O)c(C(C)(C)C)c1
flash point / °C: 130.00
//
Compound: CCCc1ccccc1
flash point / °C: 48.00
//
Compound: C=CC(=C)Cl
flash point / °C: -20.00
//
Compound: Nc1ccc(Oc2ccc(N)cc2)cc1
flash point / °C: 219.00

I: NCCNCCNCCNCCN
II: COCC(C)OC(C)=O (stereo unspecified) [1-methoxypropan-2-yl acetate]
Which numeric flash point is bigger, that of I or that of II ? Which one? Tell me its label. I
(I: 163.00 °C, II: 46.00 °C)

====

Observable: flash point (°C)

Solved cases below.
Compound: C=CCCCCCCCCCCCCCCC [1-heptadecene]
flash point [°C]: 135

Compound: CCCC(C)(C)C(C)(C)C [2,2,3,3-tetramethylhexane]
flash point [°C]: 31

Compound: C/C=C/C(C)C [trans-4-methyl-2-pentene]
flash point [°C]: -34

A: CC/C=C\CC [cis-3-hexene]
B: C=CCC(C)CC (stereo unspecified) [4-methyl-1-hexene]
C: CCCCC1CCCCC1 [n-butylcyclohexane]
D: CC(C)(C)CCC(C)(C)C [2,2,5,5-tetramethylhexane]
E: C[C@@H]1CCCC[C@@H]1C [cis-1,2-dimethylcyclohexane]
Your job: order these 5 records by flash point, ascending. Use the labels to give the requested order. A, B, E, D, C

I: C=CC(C)(C)C [3,3-dimethyl-1-butene]
II: CCc1ccccc1C(C)C [1-ethyl-2-isopropylbenzene]
III: C[C@@H]1CCC[C@@H]1C [cis-1,2-dimethylcyclopentane]
Sort these compounds on flash point so the largest reading comes first. Answer by listing the labels in the order asked for. II, III, I
(II: 58 °C, III: -4 °C, I: -29 °C)

====

Observable: flash point (°C)

Record excerpt, results attached:
Compound: CCC(C)(C)OC(C)=O [tert-pentylacetate]
flash point (°C): 25
//
Compound: CCCCC(O)CC (centres undefined) [3-heptanol]
flash point (°C): 55
//
Compound: CC(=O)C(C)=O [2,3-butanedione]
flash point (°C): 10
//
Compound: ClCc1ccccc1 [benzylchloride]
flash point (°C): 60

I: CC#N [acetonitrile]
II: CCCCCCCCCCOC(C)=O [decylacetate]
III: ClC1CCCCC1 [chlorocyclohexane]
IV: C1=CCC=CC1 [1,4-cyclohexadiene]
Provide the items ranked by increasing flash point. Returns: the labels listed in the requested order. IV, I, III, II

I: CCC(C)S (centres undefined) [2-butanethiol]
II: CC(C)c1cccc(C(C)C)c1 [1,3-diisopropylbenzene]
Response body: label of entry with the larger flash point; valid values I , II . // caller expects the label of the chosen entry II
(II: 76 °C, I: -23 °C)

====

Observable: flash point (°C)

Molecule: CO[C@H]1CO[C@H]2[C@@H]1OC[C@H]2OC
flash point [°C]: 103.00
--
Molecule: C1CCOC1 [tetrahydrofuran]
flash point [°C]: -25.56
--
Molecule: C=CCOCC1CO1 (configuration not stated)
flash point [°C]: 48.00
--
Molecule: CC(O)CO (configuration not stated)
flash point [°C]: 104.44
--
Molecule: OCC(F)(F)F
flash point [°C]: 29.00

I: CC(O)COC(C)COC(C)CO (configuration not stated) [2-[2-(2-hydroxypropoxy)propoxy]propan-1-ol]
II: NCCN
Between the two listed entries I and II , which has its flash point at the higher number? API: response body contains the label of the selected item. I

====

Observable: flash point (°C)

Compound: CC(C)c1cccc(C(C)C)c1 [1,3-diisopropylbenzene]
Unit Name: °C
flash point: 76
//
Compound: NCCN [1,2-ethanediamine]
Unit Name: °C
flash point: 34
//
Compound: CCc1ccc(O)cc1 [4-ethylphenol]
Unit Name: °C
flash point: 104
//
Compound: Cc1ccc(N)cc1 [4-methylaniline]
Unit Name: °C
flash point: 86
//
Compound: CC(C)Br [2-bromopropane]
Unit Name: °C
flash point: 1

A: C=Cc1ccc(C)cc1 [4-methylstyrene]
B: Cc1ccc(C(C)C)cc1O [carvacrol]
I'd appreciate it if you could identify which of A and B has the greater flash point. Your answer should be the label attached to the chosen record. B
(B: 106 °C, A: 45 °C)
